# Tested on: YSK4
# Construct: gene MAP3K19
# measurement-setup: concentration: 1 μM,replicates: in singlicate; n = 1;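 further: KINOMEscan kinase panel screen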

[
  {
    "compound": "COc1cc(Nc2nccc(N3CCC(NC(=O)c4cccc(C#N)c4)C3)n2)cc(OC)c1OC (stereo not drawn)",
    "unit-annotation": "%",
    "%Inh": 39
  },
  {
    "compound": "CC(=O)Nc1nc2cnc(Nc3cc(NC(=O)c4cccc(CC(C)(C)C#N)c4)ccc3C)nc2s1",
    "unit-annotation": "%",
    "%Inh": 40
  },
  {
    "compound": "NC(=O)c1ccc(-c2cc3ncnc(SCC(=O)O)c3s2)cc1",
    "unit-annotation": "%",
    "%Inh": 63
  },
  {
    "compound": "CC(=O)Nc1ccc(-c2cc3ncnc(SCC(=O)O)c3s2)cc1",
    "unit-annotation": "%",
    "%Inh": 50
  },
  {
    "compound": "CCNCC(Cc1ccccc1)NC(=O)c1cc(Br)c(-c2ccnc3[nH]ccc23)s1.Cl.Cl (stereo not drawn)",
    "unit-annotation": "%",
    "%Inh": 92.5
  },
  {
    "compound": "COc1cccc(C2=C(Nc3cccc(Cl)c3)C(=O)NC2=O)c1",
    "unit-annotation": "%",
    "%Inh": 38
  },
  {
    "compound": "Cn1cc(-c2cccc3c(N)c(C(N)=O)nnc23)cn1",
    "unit-annotation": "%",
    "%Inh": 94.4
  },
  {
    "compound": "Cn1ccc2ncnc(Oc3ccc(NC(=O)Nc4cncc(C(F)(F)F)c4)c(Cl)c3)c21",
    "unit-annotation": "%",
    "%Inh": 17
  },
  {
    "compound": "CCn1c(-c2nonc2N)nc2cncc(Br)c21",
    "unit-annotation": "%",
    "%Inh": 99.7
  }
]

---

# Tested on: TYK2(JH1domain-catalytic)
# measurement-setup: concentration: 1 μM,replicates: in singlicate; n = 1
# %Inh per entry

[
  {
    "compound": "O=c1[nH]cc(-c2ccc(O)cc2)c2sc(-c3ccncc3)cc12",
    "unit-annotation": "%",
    "%Inh": 0
  },
  {
    "compound": "CNC(=O)c1ccccc1Nc1nc(Nc2cccc(CS(C)(=O)=O)c2)ncc1C.O=CO",
    "unit-annotation": "%",
    "%Inh": 99.6
  },
  {
    "compound": "Cc1ccn2nc(-c3ccc(F)cc3)c(-c3ccncc3)c2c1.Cl",
    "unit-annotation": "%",
    "%Inh": 26
  },
  {
    "compound": "Cc1ccc(CC(=O)N2CCc3cc(-c4cn(C)c5ncnc(N)c45)ccc32)cc1",
    "unit-annotation": "%",
    "%Inh": 0
  },
  {
    "compound": "O=C(Nc1ccccc1)c1cccc(Oc2ccc3nccn3n2)c1",
    "unit-annotation": "%",
    "%Inh": 5
  },
  {
    "compound": "Cn1ccc2ncnc(Oc3ccc(NC(=O)Nc4ccnc(C(F)(F)F)c4)c(Cl)c3)c21",
    "unit-annotation": "%",
    "%Inh": 0
  },
  {
    "compound": "COc1ccc(Nc2nccc(N3CCC(NC(=O)c4cccc(C#N)c4)C3)n2)cc1 (centres unmarked)",
    "unit-annotation": "%",
    "%Inh": 44
  },
  {
    "compound": "CCN1CCN(CCCC(=O)Nc2n[nH]c3nc(-c4ccc(O)cc4)c(Br)cc23)CC1",
    "unit-annotation": "%",
    "%Inh": 52
  },
  {
    "compound": "CCOC(=O)N1CCC(n2cnc(-c3ccc(F)cc3)c2-c2ccnc(N)n2)CC1",
    "unit-annotation": "%",
    "%Inh": 48
  },
  {
    "compound": "CSc1nccc(-c2c(-c3ccc(F)cc3)ncn2CCCN2CCOCC2)n1.Cl",
    "unit-annotation": "%",
    "%Inh": 13
  },
  {
    "compound": "Cl.c1ccc(Oc2ccc(Nc3ccnc4cc(-c5ccc(CN6CCNCC6)o5)ccc34)cc2)nc1",
    "unit-annotation": "%",
    "%Inh": 3
  },
  {
    "compound": "CCn1c(-c2nonc2N)nc2cncc(CNC3CCNCC3)c21.Cl",
    "unit-annotation": "%",
    "%Inh": 31
  },
  {
    "compound": "COc1cccc(CNC(=O)NC2CCN(c3ccnc(Nc4cc(OC)c(OC)c(OC)c4)n3)C2)c1 (centres unmarked)",
    "unit-annotation": "%",
    "%Inh": 54
  },
  {
    "compound": "COc1cc(Nc2nccc(N3CCC(NC(=O)c4cccc(C#N)c4)C3)n2)cc(OC)c1OC (centres unmarked)",
    "unit-annotation": "%",
    "%Inh": 72
  },
  {
    "compound": "CC(C)S(=O)(=O)N1CCN(Cc2ccc3c(c2)nc(NC(=O)c2ccsc2)n3C[C@H](O)c2ccccc2)CC1",
    "unit-annotation": "%",
    "%Inh": 66
  },
  {
    "compound": "C[C@@H](Oc1cc(-n2cnc3cc(-c4ccncc4)ccc32)sc1C(N)=O)c1ccccc1Cl",
    "unit-annotation": "%",
    "%Inh": 25
  },
  {
    "compound": "Cn1ccc2ncnc(Oc3ccc(NC(=O)Nc4cccc(C(F)(F)F)c4)c(F)c3)c21",
    "unit-annotation": "%",
    "%Inh": 0
  }
]

---

# %Inh per entry
# Tested on: YSK1
# Construct: gene STK25
# measurement-setup: concentration: 1 μM,replicates: in singlicate; n = 1

[
  {
    "molecule": "COc1cc2nccc(Nc3ccc(Oc4ccccc4)cc3)c2cc1OC.Cl [GI261656]",
    "target-or-system": "YSK1",
    "%Inh, %": 0
  },
  {
    "molecule": "COc1cccc(C2=C(Nc3cccc(Cl)c3)C(=O)NC2=O)c1 [SB-341556]",
    "target-or-system": "YSK1",
    "%Inh, %": 0
  },
  {
    "molecule": "COC(=O)c1cccc(NC(=O)NC2CCN(c3ccnc(Nc4cc(OC)c(OC)c(OC)c4)n3)C2)c1 (stereo not shown) [GSK1379767]",
    "target-or-system": "YSK1",
    "%Inh, %": 16
  },
  {
    "molecule": "CC(C)c1nc(-c2cccc(NS(=O)(=O)c3ccccc3)c2)c(-c2ccnc(Nc3ccc4c(c3)CN(C)CC4)n2)s1 [GSK1649598]",
    "target-or-system": "YSK1",
    "%Inh, %": 56
  }
]

---

# Tested on: CSNK1A1L
# measurement-setup: concentration: 1 μM,replicates: in singlicate; n = 1

[
  {
    "compound": "C[C@@H]1CNc2c(sc3ccc4nc(-c5ccc(O)cc5)ccc4c23)C(=O)N1",
    "%Inh": "84%"
  },
  {
    "compound": "CC(C(=O)NC1CCN(c2ccnc(Nc3ccc(F)cc3)n2)C1)c1ccc(Cl)cc1 (stereo not drawn)",
    "%Inh": "3%"
  },
  {
    "compound": "CSc1nccc(-c2c(-c3ccc(F)cc3)ncn2CCCN2CCOCC2)n1.Cl",
    "%Inh": "0%"
  },
  {
    "compound": "COc1cc2c(Nc3ccc(NC(=O)c4ccccc4)cc3)ncnc2cc1OCCCN1CCOCC1",
    "%Inh": "9%"
  },
  {
    "compound": "Cc1ccn2nc(-c3ccc(F)cc3)c(-c3ccncc3)c2c1.Cl",
    "%Inh": "35%"
  },
  {
    "compound": "CNC(=O)c1ccccc1Nc1nc(Nc2cccc(CS(C)(=O)=O)c2)ncc1C.O=CO",
    "%Inh": "63%"
  },
  {
    "compound": "Cc1ccc(C(=O)Nc2ccc(Oc3ccc4nc(NC(=O)C5CC5)cn4c3)c(F)c2)c(=O)n1-c1ccccc1",
    "%Inh": "0%"
  },
  {
    "compound": "c1ccc(Oc2ccc(Nc3ccnc4ccc(-c5ccccn5)cc34)cc2)cc1",
    "%Inh": "13%"
  },
  {
    "compound": "C[C@@H](Oc1cc(-n2cnc3ccc(-c4ccncc4)cc32)sc1C(N)=O)c1ccccc1Cl",
    "%Inh": "17%"
  },
  {
    "compound": "Cn1ccc2ncnc(Oc3ccc(NC(=O)Nc4ccnc(C(F)(F)F)c4)c(Cl)c3)c21",
    "%Inh": "16%"
  },
  {
    "compound": "Cc1n[nH]c2cc(Nc3ccnc(Nc4cccc(CN5CCOCC5)c4)n3)ccc12",
    "%Inh": "0%"
  },
  {
    "compound": "COc1cccc(C2=C(Nc3cccc(Cl)c3)C(=O)NC2=O)c1",
    "%Inh": "0%"
  },
  {
    "compound": "CCN1CCN(CCCC(=O)Nc2n[nH]c3nc(-c4ccc(O)cc4)c(Br)cc23)CC1",
    "%Inh": "0%"
  },
  {
    "compound": "O=C(NOCC1CC1)c1cc(Br)c(F)c(F)c1Nc1ccc(I)cc1Cl",
    "%Inh": "0%"
  },
  {
    "compound": "Cc1nnc(-c2ccc3occ(-c4ccc(S(C)=O)cc4)c3n2)o1 (stereo not drawn)",
    "%Inh": "6%"
  },
  {
    "compound": "CS(=O)c1ccc(-c2coc3ccc(-c4n[nH]c(=O)o4)cc23)cc1 (stereo not drawn)",
    "%Inh": "7%"
  },
  {
    "compound": "O=c1[nH]cc(-c2ccc(O)cc2)c2sc(-c3ccncc3)cc12",
    "%Inh": "13%"
  },
  {
    "compound": "Cn1ccc2ncnc(Oc3ccc(NC(=O)Nc4cccc(C(F)(F)F)c4)c(Cl)c3)c21",
    "%Inh": "0%"
  }
]
